# Tested on: LPS-induced TNFα in monocytes
# test-summary: Monocytes assay: LPS-triggered TNFα (ELISA)
# Type: cell-based, human
# measurement-context: Homo sapiens, Monocyte, LPS-triggered TNFα inhibition
pEC50: −log10 of the molar value.
parameter: pEC50

Sample answers from the record:
COc1cc(-c2cnc3cc(C(C)(C)C#N)ccn23)cc(OC(F)F)c1C(=O)N[C@@H]1C[C@@H]1F: 7.00 to 10.00
COc1cc(-c2cnn3cc(C4COCCO4)ccc23)cc(OC(F)F)c1C(=O)NC1CC1 (centres unmarked): 6.00 to 7.00
COc1cc(-c2cnc3cc(C4CN(C(C)=O)C4)ccn23)cc(OC(F)F)c1C(=O)NC1CC1: 6.00 to 7.00
CNC(=O)COCC(C)(C)c1ccc2c(-c3cc(OC)c(C(=O)N[C@@H]4C[C@@H]4F)c(OC(F)F)c3)cnn2c1: 6.00 to 7.00
COc1cc(-c2cnn3cc(C(C)(C)C#N)cnc23)cc(OC(F)F)c1C(=O)N[C@@H]1C[C@@H]1F: 6.00 to 7.00

Asked: Requested field: pEC50. Item: COc1cc(-c2cnn3cc(C(C)(C)NCCO)ccc23)cc(OC(F)F)c1C(=O)N[C@@H]1C[C@@H]1F
Given back: 6.00 to 7.00

Asked: And the next one, COc1cc(-c2cnc3cc(C4CN(C(C)=O)C4)c(F)cn23)cc(OC(F)F)c1C(=O)NC1CC1 ?
Given back: 5.30 to 6.00

Asked: Now consider COc1cc(-c2cnc3cc(C4(F)COC4)ccn23)cc(OC(F)F)c1C(=O)N[C@@H]1C[C@@H]1F .
Given back: 6.00 to 7.00

Asked: Repeat for the following compound: COc1cc(-c2cnc3cc(C(C)(C)C#N)ccn23)cc(OC(F)F)c1C(=O)N1CC(C#N)C1
Given back: 6.00 to 7.00

Asked: Input COc1cc(-c2cnc3cc(C4COCCN4C)ccn23)cc(OC(F)F)c1C(=O)NC1CC1 (centres unmarked)
Given back: 6.00 to 7.00

Asked: Then this compound: COc1cc(-c2cnn3cc(C(C)(C)COC4COC4)ccc23)cc(OC(F)F)c1C(=O)N[C@@H]1C[C@@H]1F
Given back: 6.00 to 7.00

Asked: // repeat for CCC(C)(C#N)c1ccn2c(-c3cc(OC)c(C(=O)NC4CC4)c(OC(F)F)c3)cnc2c1 (centres unmarked) and report
Given back: 6.00 to 7.00

Asked: Item: COc1cc(-c2cnc3cc(C(C)(C)C(C)O)ccn23)cc(OC(F)F)c1C(=O)NC1CC1 (centres unmarked)
Given back: 6.00 to 7.00

* * *

# target-system: SIK2 (Homo sapiens, UniProt Q9H0K1)
# Construct: purchased ThermoFisher Scientific PV4792
# Sequence (Q9H0K1 whole entry): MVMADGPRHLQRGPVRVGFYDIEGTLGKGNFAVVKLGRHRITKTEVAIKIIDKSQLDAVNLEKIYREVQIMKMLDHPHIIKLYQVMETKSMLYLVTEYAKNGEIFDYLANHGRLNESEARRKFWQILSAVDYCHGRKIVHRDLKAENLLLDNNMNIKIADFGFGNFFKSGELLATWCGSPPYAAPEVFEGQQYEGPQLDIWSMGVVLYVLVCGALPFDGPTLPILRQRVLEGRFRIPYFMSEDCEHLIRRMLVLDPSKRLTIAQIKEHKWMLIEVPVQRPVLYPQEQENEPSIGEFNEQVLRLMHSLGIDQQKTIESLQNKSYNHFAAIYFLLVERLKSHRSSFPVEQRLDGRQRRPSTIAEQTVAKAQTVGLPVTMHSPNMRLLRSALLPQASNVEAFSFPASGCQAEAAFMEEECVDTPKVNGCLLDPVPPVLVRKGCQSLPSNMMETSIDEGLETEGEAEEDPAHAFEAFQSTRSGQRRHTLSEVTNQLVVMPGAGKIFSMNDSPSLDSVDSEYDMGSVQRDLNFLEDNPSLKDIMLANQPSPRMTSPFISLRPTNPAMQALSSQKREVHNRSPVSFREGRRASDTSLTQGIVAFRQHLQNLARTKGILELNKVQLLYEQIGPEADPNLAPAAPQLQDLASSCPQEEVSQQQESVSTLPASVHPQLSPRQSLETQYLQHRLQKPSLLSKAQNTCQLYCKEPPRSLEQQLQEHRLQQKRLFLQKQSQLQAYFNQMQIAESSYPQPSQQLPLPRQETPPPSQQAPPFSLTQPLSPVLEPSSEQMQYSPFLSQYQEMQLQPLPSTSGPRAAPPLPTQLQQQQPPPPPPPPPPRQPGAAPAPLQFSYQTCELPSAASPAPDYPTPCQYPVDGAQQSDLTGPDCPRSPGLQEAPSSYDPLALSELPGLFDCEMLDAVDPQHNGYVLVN
# test-summary: ADP-Glo kinase assay, SIK2
# Type: biochemical
parameter: IC50

COc1cc(-c2cnc3cc(C4CCCNC4)ccn23)cc(OC)c1C(=O)NCC(F)(F)F (stereo not shown) [Cpd 23]: 100 to 500 nM

Asked: IC50 lookup needed for COc1cc(-c2cnc3cc(C(C)(C)CN)ccn23)cc(OC(F)F)c1C(=O)NC1CC1 [Cpd 93] , thanks.
Given back: > 500 nM

Asked: Let us now turn to COc1cc(-c2cnc3cc(C(C)(C)C#N)ccn23)cc(OC(F)F)c1C(=O)NCC1CCC1 [Cpd 90]
Given back: > 500 nM

Asked: Also check COc1cc(-c2cnn3cc(C(C)(C)OCCO)ccc23)cc(OC(F)F)c1C(=O)NC1CC1 [Cpd 239]
Given back: > 500 nM
